- target.or.system: T1, monomeric hCD86 ECD (papain-digested hCD86-mIg) (human, UniProt P42081 24-243)
- T1 construct: also called monomeric hCD86-mIg ligand; monomeric CD86 ECD
- T1 chain: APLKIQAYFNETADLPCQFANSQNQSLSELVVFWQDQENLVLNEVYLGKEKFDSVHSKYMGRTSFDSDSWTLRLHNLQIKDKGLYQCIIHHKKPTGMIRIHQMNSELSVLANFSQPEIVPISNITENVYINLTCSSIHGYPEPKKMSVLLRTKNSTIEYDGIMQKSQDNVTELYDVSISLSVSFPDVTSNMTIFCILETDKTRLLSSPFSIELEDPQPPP
- experimental.protocol: SPR Biacore, fusion protein captured, monomeric hCD86 ECD in flow
measured.metric: Binding Affinity (Relative to LEA29Y-Ig)

D3-12-IgG2 (Fc fusion) MHVAQPAVVLASSRGIASFVCEYESPGKANEIRVTVLRQAGSQVTEVCAMTYMKGDELTFLDDPSCTGTFSGNQVNLTIQGLRAADTGLYICKVELMYPPPYYLGIGNGTQIYVIDPEPCPDSDERKCCVECPPCPAPPVAGPSVFLFPPKPKDTLMISRTPEVTCVVVDVSHEDPEVQFNWYVDGVEVHNAKTKPREEQFNSTFRVVSVLTVVHQDWLNGKEYKCKVSNKGLPAPIEKTISKTKGQPREPQVYTLPPSREEMTKNQVSLTCLVKGFYPSDIAVEWESNGQPENNYKTTPPMLDSDGSFFLYSKLTVDKSRWQQGNVFSCSVMHEALHNHYTQKSLSLSPG    > 5 fold

Form: binder = D3-4-IgG2 (Fc fusion, also called D3-04-IgG2) MHVAQPAVVLASSRGIASFVCEYESPGKANEIRVTVLRQADSQVTEVCAMTYMKGDELTFLDDPSCTGTFSGNQVNLTIQGLRAADTGLYICKVELMYPPPYYLGFGNGTQIYVIDPEPCPDSDERKCCVECPPCPAPPVAGPSVFLFPPKPKDTLMISRTPEVTCVVVDVSHEDPEVQFNWYVDGVEVHNAKTKPREEQFNSTFRVVSVLTVVHQDWLNGKEYKCKVSNKGLPAPIEKTISKTKGQPREPQVYTLPPSREEMTKNQVSLTCLVKGFYPSDIAVEWESNGQPENNYKTTPPMLDSDGSFFLYSKLTVDKSRWQQGNVFSCSVMHEALHNHYTQKSLSLSPG ; Binding Affinity (Relative to LEA29Y-Ig) = > 5 fold
